Target: T1, EsCas13d, nuclease-dead (Eubacterium siraeum, UniProt B0MS50, R295A;H300A;R849A;H854A)
T1 sequence: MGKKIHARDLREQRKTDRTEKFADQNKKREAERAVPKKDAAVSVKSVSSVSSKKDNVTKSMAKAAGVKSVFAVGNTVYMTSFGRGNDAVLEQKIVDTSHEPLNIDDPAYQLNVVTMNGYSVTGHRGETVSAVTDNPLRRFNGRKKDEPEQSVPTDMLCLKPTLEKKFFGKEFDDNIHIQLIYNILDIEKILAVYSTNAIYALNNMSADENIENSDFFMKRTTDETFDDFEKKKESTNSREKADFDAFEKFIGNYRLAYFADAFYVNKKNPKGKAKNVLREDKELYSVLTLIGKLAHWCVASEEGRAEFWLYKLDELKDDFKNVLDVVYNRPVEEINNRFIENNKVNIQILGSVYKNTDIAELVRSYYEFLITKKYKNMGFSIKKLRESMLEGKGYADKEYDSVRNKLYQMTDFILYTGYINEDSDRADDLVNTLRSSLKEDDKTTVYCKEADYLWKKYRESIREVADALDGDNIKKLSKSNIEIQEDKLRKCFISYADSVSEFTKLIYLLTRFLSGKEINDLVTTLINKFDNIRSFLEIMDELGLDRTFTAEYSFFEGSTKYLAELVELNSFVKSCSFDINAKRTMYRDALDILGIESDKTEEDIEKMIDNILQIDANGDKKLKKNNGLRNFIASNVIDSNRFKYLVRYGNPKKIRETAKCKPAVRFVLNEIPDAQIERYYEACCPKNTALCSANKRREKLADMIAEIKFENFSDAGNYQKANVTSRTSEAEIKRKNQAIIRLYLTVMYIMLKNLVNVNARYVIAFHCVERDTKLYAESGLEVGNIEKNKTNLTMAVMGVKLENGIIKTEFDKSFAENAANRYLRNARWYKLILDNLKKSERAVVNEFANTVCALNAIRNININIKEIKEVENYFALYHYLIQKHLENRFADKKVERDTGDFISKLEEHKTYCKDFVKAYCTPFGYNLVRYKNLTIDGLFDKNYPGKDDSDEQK
Assay: crRNA (strand 1, pre-loaded); Mg2+; 40 mM Tris-HCl pH 7.5, 150 mM NaCl, 6 mM MgCl2, 1 mM DTT, 0.1% Tween-20, 0.2 mg/ml BSA; 25 C; 10 min per concentration, then washed
Details: tags: His6-TwinStrep-SUMO cleaved; N-terminal SNAP kept (SNAP-Surface 488); label: 3' end held by stalled T7 RNA polymerase
pKd: −log10 of the molar value.
Collected pKd values appear next to each entry.

| Binder | pKd |
| --- | --- |
| target 1 insC 3' of 15,insA 3' of 13 (mixed) RNA 1: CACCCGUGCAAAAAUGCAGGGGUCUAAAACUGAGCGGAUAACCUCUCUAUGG RNA 2: GGGAAUGGAUCCACAUCUACGAAUUCGUACCAUAGAGCAGAGUUAUCCGCUCACCGAGAUCGGAAGAGCACACGU | 7.56 |
| target 1 insG 3' of 18,insU 3' of 12 (mixed) RNA 1: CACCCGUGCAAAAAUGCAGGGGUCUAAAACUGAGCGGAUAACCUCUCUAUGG RNA 2: GGGAAUGGAUCCACAUCUACGAAUUCGUACCAUAGGAGAGGUUUAUCCGCUCACCGAGAUCGGAAGAGCACACGU | 7.30 |
| target 2 MT 5'PFS ACG 3'PFS CAG (mixed) RNA 1: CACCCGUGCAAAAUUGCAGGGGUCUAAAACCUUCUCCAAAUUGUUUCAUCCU RNA 2: GGGAAUGGAUCCACAUCUACGAAUUCACGAGGAUGAAACAAUUUGGAGAAGCAGAGAUCGGAAGAGCACACGU | 8.11 |
| target 1 insA 3' of 8,insG 3' of 8 (mixed) RNA 1: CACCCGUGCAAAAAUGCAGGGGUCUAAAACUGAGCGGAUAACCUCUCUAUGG RNA 2: GGGAAUGGAUCCACAUCUACGAAUUCGUACCAUAGAGAGGUUAUAGCCGCUCACCGAGAUCGGAAGAGCACACGU | 7.48 |
| target 1 MT 5'PFS CAG 3'PFS AAG (mixed) RNA 1: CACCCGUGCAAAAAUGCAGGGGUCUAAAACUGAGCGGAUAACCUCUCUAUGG RNA 2: GGGAAUGGAUCCACAUCUACGAAUUCCAGCCAUAGAGAGGUUAUCCGCUCAAAGAGAUCGGAAGAGCACACGU | 7.55 |
| target 1 insU 3' of 22,insU 3' of 4 (mixed) RNA 1: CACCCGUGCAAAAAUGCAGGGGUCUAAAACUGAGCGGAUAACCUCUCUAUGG RNA 2: GGGAAUGGAUCCACAUCUACGAAUUCGUACUCAUAGAGAGGUUAUCCGCUUCACCGAGAUCGGAAGAGCACACGU | 7.49 |
| target 1 insA 3' of 21,insC 3' of 20 (mixed) RNA 1: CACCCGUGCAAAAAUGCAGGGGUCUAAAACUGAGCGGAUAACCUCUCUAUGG RNA 2: GGGAAUGGAUCCACAUCUACGAAUUCGUACCAACUAGAGAGGUUAUCCGCUCACCGAGAUCGGAAGAGCACACGU | 8.00 |
| target 3 U7C,U22A (mixed) RNA 1: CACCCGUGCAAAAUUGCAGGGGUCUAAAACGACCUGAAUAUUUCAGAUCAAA RNA 2: GGGAAUGGAUCCACAUCUACGAAUUCGUUAUUGAUCUGAAAUAUCCAGGUCUGCAGAUCGGAAGAGCACACGU | 7.05 |
